MEASUREMENT DESCRIPTION: physchem
CONDITION SET: water, thermodynamic from solid, Solubility (mg/mL)
PROPERTY: solubility

1. C[C@]1(CN2Cc3nc(-c4ccc(F)cc4)sc3C2)Cn2cc([N+](=O)[O-])nc2O1 < 2000 µg/mL

* * *

MEASUREMENT DESCRIPTION: physchem
CONDITION SET: aqueous with cosolvent or surfactant or cyclodextrin, thermodynamic from solid, Solubility (mg/mL)
PROPERTY: solubility

1) C[C@]1(CN2Cc3nc(-c4ccc(F)cc4)sc3C2)Cn2cc([N+](=O)[O-])nc2O1 < 2000 µg/mL
